Target: T1, human CD63 (human, UniProt P08962 2-238)
T1 construct: stably transfected in NIH3T3/hCD63; The cell line is named under assay; also called hCD63
T1 sequence: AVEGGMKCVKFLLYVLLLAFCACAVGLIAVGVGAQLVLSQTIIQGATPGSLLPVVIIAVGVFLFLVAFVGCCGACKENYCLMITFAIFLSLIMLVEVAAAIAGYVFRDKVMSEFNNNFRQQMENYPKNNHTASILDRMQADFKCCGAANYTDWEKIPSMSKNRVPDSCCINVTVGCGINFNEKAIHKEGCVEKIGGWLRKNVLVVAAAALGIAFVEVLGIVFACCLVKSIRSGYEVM
Assay: ECL, U87MG cells
pEC50: −log10 of the molar value.
Each record here notes measured pEC50.
Measured endpoint: pEC50

* H2M12395N (antibody, V domains shown, also called H2aM12395N) VH: QVQLQESGPRLVKPSETLSLTCIVSGGSISNFYWNWIRQSPGKGLEWIGYFFYTGTIDYNPSLKSRVTISLDTSKNQFSLNLRLLTAADAAVYYCARMGLGANAFDIWGHGTMVTVSS VL: EIVLTQSPGTLSLSPGERATLSCRASQHVSSNYLAWYQQKPGQAPRLLIYGGSSRATGIPDRFSGSGSGTDFTLTISRLEPADFAVFYCQQYGNSPWTFGQGTKVEMK | 9.02
* H2M12454N (antibody, V domains shown, also called H2bM12454N) VH: QVQLVESGGGLVKPGGSLRLSCAVSGFTYTDYFMNWIRQAPGKGLEWVSYISNSGAIKYYADSVKGRFTISRDNAKNSLYLQMNGLRADDTAVYYCVRDPRSYYGFDYWGQGTLVTVSS VL: DIQMTQSPSSLSASVGDRVTITCRASQSISNFLNWYQQKPGKAPRLLIYGASNLQSGVPSRFSGGGSGTDFTLTISSLQPADFATYYCQQSFSNPPVTFGQGTRLEIN | 9.33
* H1M12386N (antibody, V domains shown) VH: QVQLEESGGGVVKAGGSLRLSCVASGFTFSDYYINWIRQAPGKGLEWVSYINNGGYTIYYADSVKGRFTMSRDNAKNSVYLEMNGLRAEDTAFYYCVRDPRSYYGFDYWGQGTLVTVSS VL: DIQMTQSPSSLSASVGDRVTITCRASQSISSYLNWNQQKPGKAPKLLIYVASSLQSGVPSRFSGSGSGTDFTLTISGLQPEDFAPYYCQQSYITPPITFGQGTRLDIK | 9.51
* H2M12385N (antibody, V domains shown, also called H2bM12385N; H2bM12385) VH: QVQLVESGGGLVKPGGSLRLSCAASGFTFTDYFMNWIRQAPGKGLEWVSYISNSGAIKYQADSVKGRFTISRDNAKNSLYLQMNSLRADDTAVYYCVRDPRSYYGFDYWGQGTLVTVSS VL: DIQMTQSPSSLSASVGDRVTITCRASQSIRNFLNWYQQKPGKAPRLLIYAASSLQSGVPSRFSGGGSGTDFTLTISSLQPEDFATYYCQQSYSNPPITFGQGTRLEIK | 9.19
* H1M12451N (antibody, V domains shown) VH: QVQLQESGPGLMKPSETLSLTCTVSGGSFSSYYWNWIRQSPGKGLEWIGYIRYSGDTNYKPSLKSRFTISIDTSKNLFSLRLKSVTAADTAVYYCARMGLGSDAFDIWGQGTMVTVSS VL: EIVLTQSPGTLSLSPGERATLSCRASQSVNNNYLAWYQQKPGQAPRLLIYGVFNRATNIPDRFSGSGSGTDFTLTISRLEPEDFAVYYCQQYGSSPWTFGQGTKVEIK | 9.10
